Test system: MOLM14
Test: cell viability relative to vehicle control; higher = less cytotoxic;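 further: after 48 h exposure read by CellTiter-Glo luminescence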
Conditions: 10 µM; SRSF2 genotype: SRSF2 wt/wt
Counter-ions that a name gives are not always drawn.
observationType: cell viability (%)
State the answer as a number, implicitly in %.

Give reported cell viability for O=C1Cc2cc(CCN3CCN(c4nsc5ccccc45)CC3)c(Cl)cc2N1 [Ziprasidone hydrochloride] (MOLM14)
81.3

Report cell viability from MOLM14 testing of N#Cc1ccc(Oc2ccc3c(c2)COB3O)cc1
77.7

# return cell viability for CC(C)n1ncnc1-c1cn2c(n1)-c1ccc(O[C@@H](C)C(N)=O)cc1OCC2 , test system: MOLM14
62.9

Find the measured cell viability of CC(C(=O)O)c1cccc(Oc2ccccc2)c1 (stereo not given) [Fenoprofen calcium hydrate] with MOLM14 as test system.
102

Tell me cell viability of COc1cc(Nc2ncc(F)c(Nc3ccc4c(n3)NC(=O)C(C)(C)O4)n2)cc(OC)c1OC when tested on MOLM14.
19.6

Under MOLM14, report cell viability for CN(Cc1ccc(C(C)(C)C)cc1)Cc1cccc2ccccc12 [Butenafine HCl]
98

# lookup: MOLM14 cell viability, key = NC(N)=Nc1nc(CSCC/C(N)=N/S(N)(=O)=O)cs1
107

State recorded cell viability with MOLM14, entry COc1c(O)cc2c(c1O)[C@@H]1O[C@H](CO)[C@@H](O)[C@H](O)[C@H]1OC2=O , no comment.
91.9

Look up MOLM14 data: cell viability of Cc1[nH]nc2ccc(-c3cncc(OC[C@@H](N)Cc4ccccc4)c3)cc12 , then report it.
0.05

Recall the reported cell viability of COc1cc(C(=O)N(CCCc2ccccc2)Cc2ccc(CC(=O)O)cc2)cc(OC)c1C on MOLM14 and write it down.
99.4

Write down the reported cell viability (system: MOLM14) of O=C(O)C(=O)O.[NH-]C1CCCCC1[NH-].[Pt+2] (stereo not given) [Oxaliplatin (Eloxatin)]
48.2

Look up and report measured cell viability (MOLM14) for the following compound: Cc1ccc(C(=O)O)c(O)c1
109

// fetch cell viability; item: C/C=C(/C)C(=O)OC(C)(C)[C@@H]1Cc2c(ccc3ccc(=O)oc23)O1 ; system: MOLM14
98.4

Name the recorded cell viability of COc1cn(-c2ccc(-n3cccn3)cc2F)nc(-c2ccnn2-c2ccccc2)c1=O , assay system MOLM14.
107

Enter recorded cell viability with MOLM14 for Cc1ccc(Sc2ccccc2N2CCNCC2)c(C)c1 here.
3.18

Specify the recorded cell viability for CCCNC(=O)c1cn2ncnc(Nc3cc(C(=O)NC4CC4)ccc3C)c2c1C , system: MOLM14.
95.8

Write cell viability of Cc1csc(-c2nnc(Nc3ccc(Oc4ncccc4-c4ccnc(N)n4)cc3)c3ccccc23)c1 ; system used: MOLM14
30.5

GET cell viability | system: MOLM14 | item: COc1ccc(S(=O)(=O)NCc2ccc(C(=O)NCCc3ccc(Cl)cn3)cc2)cc1
90.9

Using MOLM14 as the test system, report measured cell viability of CC(C)(Cc1ccc2ccccc2c1)NC[C@@H](O)COc1cccc(Cl)c1C#N .
2.3

Please report cell viability with MOLM14 for item COc1ccnc(C[S+]([O-])c2nc3cc(-n4cccc4)ccc3[nH]2)c1C (stereo not given) .
101

Recall the reported cell viability of CCCC(=O)O[C@]1(C(=O)COC(C)=O)CC[C@H]2[C@@H]3C[C@H](F)C4=CC(=O)C=C[C@]4(C)[C@@]3(F)[C@@H](O)C[C@@]21C [Difluprednate] when tested on MOLM14.
92.1

Lab note: MOLM14 assay, enter cell viability for CCCCCCCC(=O)N[C@H](CN1CCCC1)[C@H](O)c1ccc2c(c1)OCCO2 [Eliglustat (Tartrate)] here
99.9

Supply cell viability measured with MOLM14 for OC[C@H]1O[C@H](OC[C@H]2O[C@H](O[C@]3(CO)O[C@H](CO)[C@@H](O)[C@@H]3O)[C@H](O)[C@@H](O)[C@@H]2O)[C@H](O)[C@@H](O)[C@H]1O [D-(+)-Raffinose pentahydrate] .
113

Give reported cell viability for CCOC(=O)[C@@H](N)Cc1ccc(-c2cc(O[C@H](c3ccc(Cl)cc3-n3ccc(C)n3)C(F)(F)F)nc(N)n2)cc1 [LX1606 hippurate] (MOLM14)
44.5

# lookup: MOLM14 cell viability, key = COc1ccc(-c2ccc3c(N4CCOCC4)nc(N4C[C@@H](C)O[C@@H](C)C4)nc3n2)cc1CO
29.8

Consider the compound C[C@H]1CNCCCN1S(=O)(=O)c1cccc2cncc(F)c12 tested on MOLM14; state its cell viability.
101

Answer briefly: cell viability recorded on MOLM14 for Cc1ccc(C=O)o1
101

Identify measured cell viability obtained with MOLM14 for CCCCCCCCCCCCCCCCn1cc[n+](Cc2ccccc2)c1C .
0

GET cell viability where system = MOLM14 and item = CCCCNc1ccc(C(=O)OCCN(C)C)cc1 [Tetracaine hydrochloride (Pontocaine)]
96.2

Given O=C(O)c1ccc(-n2nc(-c3ccccc3O)nc2-c2ccccc2O)cc1 [Deferasirox (Exjade)] , report its cell viability on MOLM14.
60

Under MOLM14: report cell viability of C/C=C/c1ccc(OC)cc1 [Trans-Anethole] .
103

Print MOLM14 cell viability for CNCCc1ccccn1 [Betahistine] .
105

Quote MOLM14 cell viability for entry COc1cc(N2CCC(N3CCN(C)CC3)CC2)ccc1Nc1ncnc(Nc2ccccc2S(=O)(=O)C(C)C)n1 .
31.1

Give cell viability for this entry on MOLM14: Cc1cccc(N(C)C(=S)Oc2ccc3ccccc3c2)c1 [Tolnaftate]
101

Provide the reported cell viability (system: MOLM14) for Nc1nccc(Oc2ccc(NC(=O)c3c[nH]cc(-c4ccc(F)cc4)c3=O)cc2F)c1Cl
14.8

----------
Test system: MOLM14
Experiment: cell viability relative to vehicle control; higher = less cytotoxic
Conditions: 10 µM; SRSF2 genotype: SRSF2 wt/wt
observationType: cell viability (%)
Answer format: numeric, % implied, no suffix.

// fetch cell viability given entry Oc1ncnc2[nH]ncc12 [Allopurinol (Zyloprim)]
96

Identify measured cell viability associated with Cc1ccc(-n2sc(=O)n(Cc3ccc(F)cc3)c2=O)cc1
61.8

Identify the reported cell viability for the following entry. CCNC(=O)C#Cc1ccc2c(C(=Nc3ccc(CN(C)C)cc3)c3ccccc3)c(O)[nH]c2c1
7.91

Please give measured cell viability of the following entry: COc1ccc(-c2cc(=O)c3c(O)cc(O[C@@H]4O[C@H](CO[C@@H]5O[C@@H](C)[C@H](O)[C@@H](O)[C@H]5O)[C@@H](O)[C@H](O)[C@H]4O)cc3o2)cc1 [Linarin]
102

// Input: C=C1C2CCC3C2C(C)(C)CCCC13C (single isomer, unassigned; (+)) [(+)-Longifolene] . Output its cell viability only.
106

Identify measured cell viability associated with C=C1C[C@@]23CC[C@H]4[C@@](C)(CCC[C@@]4(C)C(=O)O[C@@H]4O[C@H](CO)[C@@H](O)[C@H](O)[C@H]4O)[C@@H]2CC[C@]1(O[C@@H]1O[C@H](CO)[C@@H](O)[C@H](O)[C@H]1O[C@@H]1O[C@H](CO)[C@@H](O)[C@H](O)[C@H]1O)C3 [Stevioside]
112

----------
Tested on: OCI-AML2
Assay: cell viability relative to vehicle control; higher = less cytotoxic
Conditions: 10 µM; SRSF2 genotype: P95H/wt
Where a name gives a salt, the structure may show the parent alone.
observationType: cell viability (%)
Give a bare numeral; the unit % is implied.

Indicate the recorded cell viability value for this compound: CC1=CCC(=C(C)C)C(=O)CC(C)=CCC1
95.1

Give a short answer stating reported cell viability for CO/N=C(\C(=O)N[C@@H]1C(=O)N2C(C(=O)O)=CCS[C@H]12)c1csc(N)n1 .
111

# return recorded cell viability for entry O=c1[nH]c2ccccc2n1CCN1CCN(c2cccc(C(F)(F)F)c2)CC1
91

Determine its reported cell viability: CC(C)=CCC[C@](C)(O[C@@H]1O[C@H](CO)[C@@H](O)[C@H](O)[C@H]1O)[C@H]1CC[C@]2(C)[C@@H]1[C@H](O)C[C@@H]1[C@@]3(C)CC[C@H](O)C(C)(C)[C@@H]3CC[C@]12C [Ginsenoside CK]
65.3

Quickly give me recorded cell viability for CC(=NNC(=S)N1CCC1)c1ccccn1
11

Give the reported value of cell viability for this record: CCc1c2c(nc3ccc(OC(=O)N4CCC(N5CCCCC5)CC4)cc13)-c1cc3c(c(=O)n1C2)COC(=O)[C@]3(O)CC [Irinotecan HCl Trihydrate (Campto)]
3.79

State, in one line, measured cell viability of Cn1cc(/C=C/C(=O)c2cccc(F)c2)cc1/C=C/C(=O)NO
59.5

Report cell viability, nothing else, for this compound: CC(C)(Cc1ccc2ccccc2c1)NC[C@@H](O)COc1cccc(Cl)c1C#N
0.55
